- System: NCI-H513 (Other Solid Carcinomas)
- measurement notes: combination Emax (second highest fraction inhibited in the dose matrix, 72 h); higher = more inhibition; extreme values may be limits of the assay
attribute measured: combination Emax
Give bare numbers.

The cases that follow already have their combination Emax on record.
[[record]]
molecule = "CC1(C)CCC(CN2CCN(c3ccc(C(=O)NS(=O)(=O)c4ccc(NCC5CCOCC5)c([N+](=O)[O-])c4)c(Oc4cnc5[nH]ccc5c4)c3)CC2)=C(c2ccc(Cl)cc2)C1 [Venetoclax] + Cn1cnc2c(F)c(Nc3ccc(Br)cc3Cl)c(C(=O)NOCCO)cc21 [Selumetinib] (first compound max 1 µM, 7x7, partner max 3 µM)"
value = 0.228

[[record]]
molecule = "CC1(C)CCC(CN2CCN(c3ccc(C(=O)NS(=O)(=O)c4ccc(NCC5CCOCC5)c([N+](=O)[O-])c4)c(Oc4cnc5[nH]ccc5c4)c3)CC2)=C(c2ccc(Cl)cc2)C1 [Venetoclax] + CCN(CCO)CCCOc1ccc2c(Nc3cc(CC(=O)Nc4cccc(F)c4)[nH]n3)ncnc2c1 [AZD2811] (first compound max 1 µM, 7x7, partner max 1 µM)"
value = 0.183


Consider the additional molecule presented here.
Exercise: # return recorded combination Emax for entry NC1(C(=O)N[C@@H](CCO)c2ccc(Cl)cc2)CCN(c2ncnc3[nH]ccc23)CC1 [Capivasertib] + CC(C)n1c(=O)n(C)c2cnc3cc(F)c(-c4ccc(OCCCN5CCCCC5)nc4)cc3c21 [AZD1390] (first compound max 10 µM, 7x7, partner max 0.3 µM)
Solution: 0.171

---

- Tested on: NB7 (Neuroblastoma);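 also: after 72 h of two-drug dosing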
- measurement notes: Bliss excess, mean over the matrix (fraction); higher = more synergy
attribute measured: Bliss excess
One number for each entry.

The cases that follow already have their Bliss excess on record.
[[record]]
molecule = "Cn1cnc2c(F)c(Nc3ccc(Br)cc3Cl)c(C(=O)NOCCO)cc21 [Selumetinib] + C=CCn1c(=O)c2cnc(Nc3ccc(N4CCN(C)CC4)cc3)nc2n1-c1cccc(C(C)(C)O)n1 [AZD1775] (first compound max 10 µM, partner max 1 µM)"
value = -0.0305

[[record]]
molecule = "CCN(CCO)CCCOc1ccc2c(Nc3cc(CC(=O)Nc4cccc(F)c4)[nH]n3)ncnc2c1 [AZD2811] + C=CCn1c(=O)c2cnc(Nc3ccc(N4CCN(C)CC4)cc3)nc2n1-c1cccc(C(C)(C)O)n1 [AZD1775] (first compound max 1 µM, partner max 1 µM)"
value = 0.0497

[[record]]
molecule = "O=C(c1cc(Cc2n[nH]c(=O)c3ccccc23)ccc1F)N1CCN(C(=O)C2CC2)CC1 [Olaparib] + COc1nnc2ccc(N3CCC(c4ccc(OCCN5CCN(C)C(=O)[C@H]5C)cc4)CC3)nn12 [AZD5153] (first compound max 10 µM, 7x7, partner max 1 µM)"
value = -0.0339

[[record]]
molecule = "C=CCn1c(=O)c2cnc(Nc3ccc(N4CCN(C)CC4)cc3)nc2n1-c1cccc(C(C)(C)O)n1 [AZD1775] + O=C(c1cc(Cc2n[nH]c(=O)c3ccccc23)ccc1F)N1CCN(C(=O)C2CC2)CC1 [Olaparib] (first compound max 1 µM, partner max 10 µM)"
value = -0.0171

[[record]]
molecule = "Cc1c2c(nn1C)CSCc1cc(n(C)n1)CSc1cc(c3ccccc3c1)OCCCc1c(C(=O)O)n(C)c3c-2c(Cl)ccc13 [AZD5991] + CN(C)CCCOc1ccc(-c2ccc3ncc4c(c3c2)n(C2CCOCC2)c(=O)n4C)cn1 [AZD0156] (first compound max 1 µM, 7x7, partner max 1 µM)"
value = -0.0178

[[record]]
molecule = "CC1(C)CCC(CN2CCN(c3ccc(C(=O)NS(=O)(=O)c4ccc(NCC5CCOCC5)c([N+](=O)[O-])c4)c(Oc4cnc5[nH]ccc5c4)c3)CC2)=C(c2ccc(Cl)cc2)C1 [Venetoclax] + CCN(CCO)CCCOc1ccc2c(Nc3cc(CC(=O)Nc4cccc(F)c4)[nH]n3)ncnc2c1 [AZD2811] (first compound max 1 µM, 7x7, partner max 1 µM)"
value = 0.0098


Quick request: Bliss excess for each listed item, please.
1. N#Cc1cnc(Nc2cc(NC[C@H]3CNCCO3)c(C(F)(F)F)cn2)cn1 [SRA737] + Nc1ccn([C@@H]2O[C@H](CO)[C@@H](O)C2(F)F)c(=O)n1 [Gemcitabine] (first compound max 10 µM, 7x7, partner max 0.3 µM)
2. NC1(C(=O)N[C@@H](CCO)c2ccc(Cl)cc2)CCN(c2ncnc3[nH]ccc23)CC1 [Capivasertib] + CCN(CCO)CCCOc1ccc2c(Nc3cc(CC(=O)Nc4cccc(F)c4)[nH]n3)ncnc2c1 [AZD2811] (first compound max 10 µM, 7x7, partner max 1 µM)
3. COc1nnc2ccc(N3CCC(c4ccc(OCCN5CCN(C)C(=O)[C@H]5C)cc4)CC3)nn12 [AZD5153] + Cc1c2c(nn1C)CSCc1cc(n(C)n1)CSc1cc(c3ccccc3c1)OCCCc1c(C(=O)O)n(C)c3c-2c(Cl)ccc13 [AZD5991] (first compound max 1 µM, 7x7, partner max 1 µM)
4. C[C@@H]1COCCN1c1cc(C2([S@](C)(=N)=O)CC2)nc(-c2ccnc3[nH]ccc23)n1 [AZD6738] + O=C(c1cc(Cc2n[nH]c(=O)c3ccccc23)ccc1F)N1CCN(C(=O)C2CC2)CC1 [Olaparib] (first compound max 10 µM, 7x7, partner max 10 µM)
5. COc1nnc2ccc(N3CCC(c4ccc(OCCN5CCN(C)C(=O)[C@H]5C)cc4)CC3)nn12 [AZD5153] + C[C@@H]1COCCN1C2=NC(=NC(=C2)C3(CC3)[S@](=N)(=O)C)C4=C5C=CNC5=NC=C4 [AZD6738] (first compound max 1 µM, 7x7, partner max 10 µM)
6. CN(C)CCCOc1ccc(-c2ccc3ncc4c(c3c2)n(C2CCOCC2)c(=O)n4C)cn1 [AZD0156] + CCN(CCO)CCCOc1ccc2c(Nc3cc(CC(=O)Nc4cccc(F)c4)[nH]n3)ncnc2c1 [AZD2811] (first compound max 1 µM, 7x7, partner max 1 µM)

Solution:
1: 0.0519; 2: 0.0377; 3: 0.0105; 4: 0.0202; 5: -0.0111; 6: -0.0082

Quick request: Bliss excess for each listed item, please.
1. Cc1cc2ncnn2cc1Nc1ncc2c(n1)n(C1CCOCC1)c(=O)n2C [AZD7648] + CCN(CCO)CCCOc1ccc2c(Nc3cc(CC(=O)Nc4cccc(F)c4)[nH]n3)ncnc2c1 [AZD2811] (first compound max 10 µM, 7x7, partner max 1 µM)
2. Cc1c2c(nn1C)CSCc1cc(n(C)n1)CSc1cc(c3ccccc3c1)OCCCc1c(C(=O)O)n(C)c3c-2c(Cl)ccc13 [AZD5991] + C[C@@H]1COCCN1C2=NC(=NC(=C2)C3(CC3)[S@](=N)(=O)C)C4=C5C=CNC5=NC=C4 [AZD6738] (first compound max 1 µM, 7x7, partner max 10 µM)

Solution:
0.0415
0.028
